target: D-alanine--D-alanine ligase B (Escherichia coli K-12) (UniProt P07862); test: Inhibition of recombinant Escherichia coli DdlB assessed as residual activity at 500 uM using D-alanine as substrate incubated for 20 mins and measured by malachite green based colorimetric assay relative to control
Assay Metric: Activity (%)
Numbers only, in %.

COC(=O)CC(=O)Nc1ncc(C#N)s1	88
O=C(O)C(=O)Nc1ncc(Br)s1	94
O=C(O)c1scnc1Br	96
NCCc1cn(Cc2cscn2)nn1	82
CC(=O)c1nc(C)cs1	92
Nc1ccc(S(=O)(=O)Nc2nccs2)cc1 [SULFATHIAZOLE]	94

Below are some compounds; for each one, tell me its Activity.
1. N#Cc1cnc(NC(=O)CC(=O)O)s1
2. Cc1nnc(N)s1
3. Cc1cnc(Br)s1
4. COC(=O)CC(=O)Nc1ncc(Br)s1
5. CNc1nnc(C(F)(F)F)s1
6. Nc1nccs1 [AMINOTHIAZOLE]

Reply:
[96, 98, 77, 88, 98, 95]

Query: Determine its reported Activity: O=C(O)c1csc(Nc2cccc3ncccc23)n1
Reply: 82

====

Could you please report measured Activity_index for the items listed next?
test: Redox activity of compound assessed as redox index at 10 uM measured by resazurin assay; format: physicochemical
Numbers only.

Below are some molecules; for each one, tell me its Activity_index.
1. Cc1cnc(N)s1
2. Clc1nccs1
3. COC(=O)CC(=O)Nc1ncc(Br)s1
4. Cc1cnc(Br)s1
5. CC(C)(C)c1csc(N)n1
6. O=C(O)c1csc(Br)n1
7. Nc1nnc(C2CC2)s1

Reply:
0.9
0.9
0.9
1
0.9
0.9
0.9

Below are some molecules; for each one, tell me its Activity_index.
1. Cc1csc(N)n1
2. Nc1nc(-c2ccncc2)cs1

Reply:
1: 1; 2: 1

====

Could you please report measured Activity for the items listed next?
target: Replicase polyprotein 1ab (Severe acute respiratory syndrome coronavirus 2) (UniProt P0DTD1); assay: Inhibition of recombinant SARS-CoV-2 3CLpro expressed in Escherichia coli NiCo21(DE3) assessed as residual activity at 500 uM using DABCYL-KTSAVLQSGFRKME-EDANS as substrate preincubated for 30 mins followed by substrate addition and measured by FRET assay relative to control
One number for each entry, in %.

Please review the following examples before continuing.
Nc1nccs1	86.1
CCOC(=O)c1cnc(Br)s1	10.2
CCOC(=O)Cc1csc(Br)n1	72
Cc1nc(-c2ccc(C(=O)O)cc2)cs1	149
NCCc1cn(Cc2cscn2)nn1	87.2

Next:
Query: Determine its reported Activity: Cc1nc(Br)sc1C(=O)O
Reply: 100

====

molecular target: D-alanine--D-alanine ligase B (Escherichia coli K-12) (UniProt P07862); assay: Inhibition of recombinant Escherichia coli DdlB assessed as residual activity at 500 uM using D-alanine as substrate incubated for 20 mins and measured by malachite green based colorimetric assay relative to control
Assay Metric: Activity

Nc1nnc(C2CC2)s1	96%
Brc1nncs1	93%
Nc1nc(CC(=O)O)cs1	96%
CC(C)(C)c1csc(N)n1	94%
CCOC(=O)Cc1csc(Br)n1	95%
O=C(O)Cc1csc(Br)n1	103%
Nc1ncc(Br)s1	91%
Cc1nc(Br)sc1C(=O)O	94%
Nc1nnc(C(F)(F)F)s1	100%
O=C(O)c1nc(Br)cs1	84%

Below are some compounds; for each one, tell me its Activity.
1. O=C(O)c1csc(Br)n1
2. Cc1cnc(N)s1
3. Nc1nc(C(=O)O)cs1
4. CCOC(=O)c1sc(Br)nc1C
5. O=C(O)c1csc(-c2ccc(F)cc2)n1
6. Cc1nc(-c2ccc(C(=O)O)cc2)cs1
7. N#Cc1cnc(Br)s1
8. CCOC(=O)Cc1csc(N)n1

Reply:
1: 92%; 2: 92%; 3: 96%; 4: 93%; 5: 94%; 6: 94%; 7: 94%; 8: 94%

Below are some compounds; for each one, tell me its Activity.
1. N#Cc1cnc(NC(=O)C(=O)O)s1
2. COC(=O)c1cnc(Br)s1
3. Fc1ccc(-c2csc(Br)n2)cc1F
4. N#Cc1cnc(N)s1
5. Cc1csc(N)n1

Reply:
1. 105%
2. 96%
3. 136%
4. 91%
5. 90%

Values from ChEMBL document CHEMBL5104216
